test system: HT29 colon; experiment: NCI tumour cell line growth inhibition, 48 h
quantity: TGI

Record excerpt, results attached:
compound	TGI
COc1cccc(/C=N/n2c(Cc3ccc(Cl)cc3)n[nH]c2=O)c1	34 µM
O=C(Nc1ccccc1F)c1ccc(NC2=C(Cl)C(=O)N(Cc3ccccc3)C2=O)cc1	13.5 µM

Supply reported TGI belonging to this compound: NC(CNc1ccc(O)cc1)C(=O)O (stereo not drawn) > 100 µM

* * *

system: RPMI-8226 leukemia; assay: NCI tumour cell line growth inhibition, 48 h
quantity: TGI

Previously resolved entries follow.
compound	TGI
COc1cc2c3c(n(C)c(=O)c2cc1OC)-c1cc2c(cc1/C3=C\[C@@H](N)CCCCN)OCO2	35.2 µM
CCCC1C(C#N)(C#N)C(C#N)=C(N)C1(C)C(C)=O (stereo unspecified)	> 100 µM

Query TGI for COc1ccc2sc3c(NCCCNCCO)nc4ccccc4c3c(=O)c2c1 3.86 µM

Return reported TGI. Input compound: CCOC(=O)/C=C1/Nc2cc(F)c(F)cc2NC1=O > 100 µM

Give reported TGI value for Cc1ccc(-n2c(-c3ccc(Cl)cc3)cs/c2=N\NC(=O)COc2n[nH]c(=O)c3ccccc23)cc1 > 100 µM

# return recorded TGI for input COc1cc(/C=C/C(=O)c2cc(OC)c(OC)c(OC)c2)cc(OC)c1OC 19.4 µM

Retrieve TGI measured for O=[N+]([O-])c1ccc2c(c1)S(=O)c1ccccc1-2 (stereo unspecified) and print it. > 100 µM

Please give measured TGI of the following entry: COc1cc(C2C3=C(N=C4SC(C(C)=O)=C(C)N42)c2ccccc2CC3)cc(OC)c1OC (stereo unspecified) 93.4 µM

// fetch TGI given entry C/C(=N\n1c(Cc2ccccc2)n[nH]c1=O)c1ccc([N+](=O)[O-])cc1 > 100 µM

Tell me its TGI given O=C1CCC2CCOc3ccc(O)c1c32 (stereo unspecified) as the entry. > 100 µM

Report TGI for Cc1nc(N)nc(N)c1N1CCN(Cc2ccccc2)CC1 > 95.6 µM
